# ASSAY SUMMARY: BSK_CASM3C_SRB: Viability Assessment in the BioMAP Diversity Plus: CASM3C Assay (AID 2283050);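 note: total protein by SRB staining as cytotoxicity measure in parallel cultures; cells exposed to compound for 24 h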
# CONDITION: primary human coronary artery smooth muscle cells
The source made the active and inactive calls. Rule for the calls: active = hit-call score of the fitted dose curve at least 0.9, where 1 is the maximum; inactive = score below 0.9.
Labels: true = active, false = inactive

COMPOUND	CLASS
CCOP(=O)(OCC)OC(=CCl)c1ccc(Cl)cc1Cl	true
O=C(Cc1ccccc1)OCCc1ccccc1	false
CCN(CC)C(=O)C(Cl)=C(C)OP(=O)(OC)OC	false
Nc1ccc(N)cc1	false
[Cl][Sn]([c]1ccccc1)([c]1ccccc1)[c]1ccccc1	true
Oc1c(Br)cc(Br)cc1Br	false
O=[N+]([O-])c1cccc2ccccc12	false
O=[N+]([O-])c1ccc(Nc2ccccc2)cc1	false
Cc1ccccc1OP(=O)(Oc1ccccc1C)Oc1ccccc1C	true
CCCCN(CCCC)C(=S)[S-].CCCCN(CCCC)C(=S)[S-].[Ni+2]	false
CC(C)O.CC(C)O.OCCN(CCO)CCO.OCCN(CCO)CCO.[Ti]	false
O=C(CCl)NCO	false
C=CC(Cl)CCl (configuration not stated)	false
O=C(N[C@H]1CN2CCC1CC2)c1ccc2c(c1)OCCO2	false
O=C1C=CC(=O)c2ccccc21	true
O=S(=O)(c1ccc(Cl)cc1)c1cc(Cl)c(Cl)cc1Cl	false
CC(C=O)Cc1ccc2c(c1)OCO2 (configuration not stated)	false
Oc1ccc(Cc2ccc(O)cc2)cc1	false
CN(C)C(=S)S	false
Cc1cccc(OP(=O)(Oc2cccc(C)c2)Oc2cccc(C)c2)c1	false
CCOC(=O)CC(=O)CCl	true
OC(Cc1ccccc1Cl)(Cn1[nH]cnc1=S)C1(Cl)CC1 (configuration not stated)	true
COCC(=O)N(c1c(C)cccc1C)[C@H](C)C(=O)OC	false
CC(C)(C)c1cc([N+](=O)[O-])cc(C(C)(C)C)c1O	false
Cc1cc(Cl)ccc1N	false
Cc1cc(C)cc(C)c1	false
c1ccc2sc(SNC3CCCCC3)nc2c1	false

====

# ASSAYED SYSTEM: Hepatocyte nuclear factor 3-beta (Homo sapiens)
# ASSAY SUMMARY: ATG_FoxA2_CIS: Attagene CIS-FACTORIAL HepG2 Assay for human Forkhead box A2 (FOXA2) (AID 2282942)
# CONDITION: HepG2 cis-reporter transcription factor activity, 24 h; actives raise or lower the signal
The source made the active and inactive calls. Rule for the calls: active = hit-call score of the fitted dose curve at least 0.9, where 1 is the maximum; inactive = score below 0.9.
Labels: TRUE (active), FALSE (inactive)

MOLECULE	CLASS
N#Cc1ccccc1N	FALSE
O=c1nc(O)n(Cl)c(=O)n1Cl	FALSE
CCCCN(CCCC)C(=S)S	TRUE
CCCCN(CCCCO)N=O	FALSE
O=C(O)c1cc(I)cc(I)c1I	FALSE
Brc1ccc(Oc2c(Br)cc(Br)cc2Br)c(Br)c1	FALSE
CCOC(=O)C(SP(=S)(OC)OC)c1ccccc1 (configuration not stated)	FALSE
[Cl][Sn]([c]1ccccc1)([c]1ccccc1)[c]1ccccc1	FALSE
COP(=S)(OC)Oc1cc(Cl)c(I)cc1Cl	FALSE
CCOc1cc(C=O)ccc1O	FALSE
C[N+](C)(C)Cc1ccccc1	FALSE
CC1CC(=O)O1 (configuration not stated)	FALSE
O=S1OC[C@@H]2[C@H](CO1)[C@]1(Cl)C(Cl)=C(Cl)[C@@]2(Cl)C1(Cl)Cl (some centres not stated)	FALSE
CCC[CH2][Sn]([CH2]CCC)([CH2]CCC)[CH2]CCC	FALSE
O=c1oc2ccccc2c(O)c1C(CC(O)c1ccc(-c2ccc(Br)cc2)cc1)c1ccccc1 (configuration not stated)	FALSE
Cc1cc(C)cc(C)c1	FALSE
[F][Sn]([c]1ccccc1)([c]1ccccc1)[c]1ccccc1	TRUE
Cc1cccc(C)c1NC(=O)CN1CCCC1=O	FALSE
Nc1cccnc1	FALSE
OCC(c1ccc(Cl)cc1)c1ccc(Cl)cc1	FALSE
C1CCC(C2CCCCC2)CC1	FALSE
CCCCCCCCCCCCCCC(Br)C(=O)O (configuration not stated)	TRUE
O=[N+]([O-])c1c2ccccc2cc2ccccc12	FALSE
O=[N+]([O-])c1ccc(Nc2ccccc2)cc1	FALSE
O=[N+]([O-])c1ccc(Cl)c([N+](=O)[O-])c1	FALSE
CC(C)C(C)(N)C#N (configuration not stated)	FALSE
O=C1C[C@@H]2OCC=C3CN4CC[C@]56c7ccccc7N1[C@H]5[C@H]2[C@H]3C[C@H]46	FALSE
CCOP(=S)(OCC)SCSc1cc(Cl)ccc1Cl	FALSE
Cc1cc(SCc2sc(-c3ccc(C(F)(F)F)c(F)c3)nc2C)ccc1OCC(=O)O	FALSE
ClCc1ccccc1Cl	FALSE
CC(C)(C1CCC(O)CC1)C1CCC(O)CC1 (configuration not stated)	FALSE
OC[C@@H](O)[C@H]1O[C@@H]2O[C@H](C(Cl)(Cl)Cl)O[C@@H]2[C@H]1O	FALSE
CN(CCCC(O)c1cccnc1)N=O (configuration not stated)	FALSE
O=C(NC(=O)c1c(F)cccc1F)Nc1cc(Cl)c(F)c(Cl)c1F	FALSE
N#CCC#N	FALSE
Nc1ccc(-c2ccccc2)cc1	FALSE
Nc1ccc(Br)cc1	FALSE
CC(C)(C)c1ccc(CCOc2ncnc3ccccc23)cc1	FALSE
O=C(N[C@H]1CN2CCC1CC2)c1ccc2c(c1)OCCO2	FALSE
Cc1ccc(CCl)cc1	FALSE
BrCCCCBr	FALSE
O=C(CCl)NCO	FALSE
Fc1cccc(Cl)c1CCl	FALSE
C=CC(=O)[O][Sn]([CH2]CCC)([CH2]CCC)[CH2]CCC	TRUE
C=CCOC(N)=O	FALSE
CCCCC(CC)C(=O)Cl (configuration not stated)	FALSE
O=C(NC(=O)c1c(F)cccc1F)Nc1cc(Cl)c(OC(F)(F)C(F)C(F)(F)F)cc1Cl (configuration not stated)	FALSE
O=NN1CCOCC1	FALSE
O=C(CCl)Nc1ccccc1	FALSE
CCCCOC(=O)COC(=O)c1ccccc1C(=O)OCCCC	FALSE
CC(c1ccccc1)(c1ccc(O)cc1)c1ccc(O)cc1	FALSE
CC(C)CC(C)(c1ccc(O)cc1)c1ccc(O)cc1	FALSE
C1CN2CCN1CC2	FALSE
Cc1ccccc1OP(=O)(Oc1ccccc1C)Oc1ccccc1C	FALSE
CC(O)(CS(=O)(=O)c1ccc(F)cc1)C(=O)Nc1ccc(C#N)c(C(F)(F)F)c1 (configuration not stated)	FALSE
CC(C)(c1ccc(O)c(-c2ccccc2)c1)c1ccc(O)c(-c2ccccc2)c1	FALSE
O=S(=O)(c1ccc(Cl)cc1)c1cc(Cl)c(Cl)cc1Cl	FALSE

====

# ASSAY SUMMARY: ATG_ERE_CIS: Attagene CIS-FACTORIAL HepG2 Assay for Estrogen Response Element (ERE) (AID 2282940)
# CONDITION: HepG2 ERE cis-reporter, Attagene RNA transcript; actives raise or lower the signal
The source made the active and inactive calls. Rule for the calls: active = hit-call score of the fitted dose curve at least 0.9, where 1 is the maximum; inactive = score below 0.9.
Outcomes: active, inactive

MOLECULE	CLASS
O=C1c2ccccc2C(=O)C1C(=O)C(c1ccccc1)c1ccc(Cl)cc1 (stereo unspecified)	inactive
O=S1(=O)OC(c2cc(Br)c(O)c(Br)c2)(c2cc(Br)c(O)c(Br)c2)c2ccccc21	inactive
O=C(NC(=O)c1c(F)cccc1F)Nc1cc(Cl)c(OC(F)(F)C(F)C(F)(F)F)cc1Cl (stereo unspecified)	inactive
O=[N+]([O-])c1ccc(Cl)c([N+](=O)[O-])c1	inactive
C[C@@H]1O[C@@H](O[C@H]2C[C@@H](O)[C@]3(CO)[C@H]4[C@H](O)C[C@]5(C)[C@@H](C6=CC(=O)OC6)CC[C@]5(O)[C@@H]4CC[C@]3(O)C2)[C@H](O)[C@H](O)[C@H]1O	inactive
C=C(C)[C@@H]1CC=C(C=O)CC1	inactive
Cc1c([N+](=O)[O-])c(C)c([N+](=O)[O-])c(C(C)(C)C)c1[N+](=O)[O-]	active
O=C(O)c1cc(I)cc(I)c1I	active
CCOP(=O)(OCC)SCCSCC	inactive
Oc1cccc(-c2ccccc2)c1	active
CC(C)N(C(=O)CCl)c1ccccc1	inactive

====

# Read-out: Interleukin-8 (IL8), CXCL8 (gene 3576)
# ASSAY SUMMARY: BSK_SAg_IL8: BioMAP Diversity Plus: SAg Assay for Interleukin-8 (IL8) Biomarker Activity (AID 2283094)
# CONDITION: primary human HUVEC with PBMC; actives raise or lower the signal
Active and inactive are the calls of the source. The calls were made as follows: active = hit-call score of the fitted dose curve at least 0.9, where 1 is the maximum; inactive = score below 0.9.
Labels: class 1 = active, class 0 = inactive

COMPOUND	CLASS
Oc1cccc(-c2ccccc2)c1	class 0
c1ccc(-c2cccc(-c3ccccc3)c2)cc1	class 1
CC(C)(COCC1CO1)COCC1CO1 (centres undefined)	class 0
Clc1cccc(Cl)c1Cl	class 0
O=S(=O)(c1ccc(Cl)cc1)c1cc(Cl)c(Cl)cc1Cl	class 0
CCOP(=O)(OCC)OC(=CCl)c1ccc(Cl)cc1Cl	class 0
O=c1oc2ccccc2c(O)c1C(CC(O)c1ccc(-c2ccc(Br)cc2)cc1)c1ccccc1 (centres undefined)	class 0
Cc1ccccc1OP(=O)(Oc1ccccc1)Oc1ccccc1	class 1
CCCCOC(=O)COC(=O)c1ccccc1C(=O)OCCCC	class 0
Oc1c(Cl)cc(Cl)cc1Cl	class 0
Oc1cc(Cl)c(Cl)cc1Cl	class 1
C=CC(Cl)CCl (centres undefined)	class 0
CC(C)N(C(=O)CCl)c1ccccc1	class 0
N#Cc1cccnc1	class 0
